- Test system: tetA promoter (PtetA)-lacZ reporter in E. coli KM3
- Assay type: cell-based
- Measurement Context: Table 6, reverse repressor hits; rimsulfuron, same plate assay format as Table 4
Readout Label: relative β-galactosidase activity, inducer Rs
Form: value (number only, do not type unit).

Molecule	Assay Result
L1-25: library L1 reverse repressor hit (SEQ ID NO: 1206-1213) (protein, rSuR L1-25) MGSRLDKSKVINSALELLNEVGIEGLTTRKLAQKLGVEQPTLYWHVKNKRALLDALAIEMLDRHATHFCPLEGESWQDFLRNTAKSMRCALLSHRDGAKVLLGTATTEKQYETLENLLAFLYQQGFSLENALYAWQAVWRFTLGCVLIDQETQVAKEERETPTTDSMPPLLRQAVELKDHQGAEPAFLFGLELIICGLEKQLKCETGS	1.08
L1-41: library L1 reverse repressor hit (SEQ ID NO: 1206-1213) (protein, rSuR L1-41) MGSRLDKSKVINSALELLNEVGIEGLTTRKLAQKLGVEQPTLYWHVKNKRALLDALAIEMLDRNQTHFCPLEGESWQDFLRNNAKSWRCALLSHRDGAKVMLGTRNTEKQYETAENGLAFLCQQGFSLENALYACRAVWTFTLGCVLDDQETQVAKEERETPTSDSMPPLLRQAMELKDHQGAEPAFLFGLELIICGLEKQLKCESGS	4.05

get_value(item= L1-18: library L1 reverse repressor hit (SEQ ID NO: 1206-1213) (protein, rSuR L1-18) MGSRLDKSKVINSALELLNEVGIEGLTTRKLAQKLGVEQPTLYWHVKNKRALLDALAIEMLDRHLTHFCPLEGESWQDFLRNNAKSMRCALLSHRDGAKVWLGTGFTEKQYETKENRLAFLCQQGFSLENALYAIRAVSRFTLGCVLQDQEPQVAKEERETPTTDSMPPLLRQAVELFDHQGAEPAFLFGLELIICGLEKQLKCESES , readout=relative β-galactosidase activity, inducer Rs) returns 2.55

get_value(item= L1-34: library L1 reverse repressor hit (SEQ ID NO: 1206-1213) (protein, rSuR L1-34) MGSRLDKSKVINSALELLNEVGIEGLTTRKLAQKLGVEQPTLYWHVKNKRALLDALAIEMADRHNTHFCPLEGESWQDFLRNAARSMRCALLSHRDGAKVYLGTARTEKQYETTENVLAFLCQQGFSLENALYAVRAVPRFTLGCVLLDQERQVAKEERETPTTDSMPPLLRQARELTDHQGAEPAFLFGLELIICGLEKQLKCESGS , readout=relative β-galactosidase activity, inducer Rs) returns 2.30

get_value(item= L1-21: library L1 reverse repressor hit (SEQ ID NO: 1206-1213) (protein, rSuR L1-21) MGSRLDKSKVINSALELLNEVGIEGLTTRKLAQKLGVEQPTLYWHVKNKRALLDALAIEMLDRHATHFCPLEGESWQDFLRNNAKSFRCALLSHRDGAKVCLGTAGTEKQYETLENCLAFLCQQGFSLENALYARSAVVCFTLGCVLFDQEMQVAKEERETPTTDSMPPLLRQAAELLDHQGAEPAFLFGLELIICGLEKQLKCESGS , readout=relative β-galactosidase activity, inducer Rs) returns 2.31

get_value(item= L1-39: library L1 reverse repressor hit (SEQ ID NO: 1206-1213) (protein, rSuR L1-39) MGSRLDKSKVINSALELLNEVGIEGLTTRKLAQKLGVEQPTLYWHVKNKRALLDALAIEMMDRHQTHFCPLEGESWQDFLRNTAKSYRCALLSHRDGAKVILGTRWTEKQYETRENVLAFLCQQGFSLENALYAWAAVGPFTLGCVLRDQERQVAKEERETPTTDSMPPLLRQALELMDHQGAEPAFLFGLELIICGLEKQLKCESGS , readout=relative β-galactosidase activity, inducer Rs) returns 4.72
